Known Solenopsis invicta Mortality (%) 100 ppm 24 h of a selection of compounds
System: Solenopsis invicta
ASSAY DETAILS: whole plant or invertebrate
Type: in vivo
MEASUREMENT CONDITIONS: 100 ppm; 24 h; water test tube poison-feeding
RESULT TYPE: Solenopsis invicta Mortality (%) 100 ppm 24 h

>  <COMPOUND>
CC(=O)C1(CC(F)(F)F)Nc2c([S+]([O-])C(F)(F)F)c(C#N)nn2-c2ncc(C(F)(F)F)cc21 (stereo not drawn)

>  <OBSERVED>
14

$$$$
>  <COMPOUND>
COC(=O)C1(CC#N)Nc2c([S+]([O-])C(F)(F)F)c(C#N)nn2-c2ncc(C(F)(F)F)cc21 (stereo not drawn)

>  <OBSERVED>
19

$$$$
>  <COMPOUND>
N#Cc1nn2c(c1[S+]([O-])C(F)(F)F)NC(Cl)(CBr)c1cc(C(F)(F)F)cnc1-2 (stereo not drawn)

>  <OBSERVED>
20

$$$$
>  <COMPOUND>
COC(=O)CC1(C(F)(F)F)Nc2c([S+]([O-])C(F)(F)F)c(C#N)nn2-c2ncc(C(F)(F)F)cc21 (stereo not drawn)

>  <OBSERVED>
21

$$$$
>  <COMPOUND>
COC(=O)CC1(C(=O)C(F)(F)F)Nc2c([S+]([O-])C(F)(F)F)c(C#N)nn2-c2ncc(C(F)(F)F)cc21 (stereo not drawn)

>  <OBSERVED>
23

$$$$
>  <COMPOUND>
N#Cc1nn2c(c1[S+]([O-])C(F)(F)F)NC(CBr)(C(=O)C(F)(F)F)c1cc(C(F)(F)F)cnc1-2 (stereo not drawn)

>  <OBSERVED>
14

$$$$

###

Known Solenopsis invicta Mortality (%) 24 h of a selection of compounds
Tested on: Solenopsis invicta
ASSAY DETAILS: whole plant or invertebrate
Format: in vivo
MEASUREMENT CONDITIONS: 100 ppm; 24 h; water test tube poison-feeding

>  <COMPOUND>
N#Cc1nn2c(c1[S+]([O-])C(F)(F)F)NC(CC(F)(F)F)(C(F)(F)F)c1cc(C(F)(F)F)cc(Cl)c1-2 (stereo not drawn) [d-69]

>  <Solenopsis invicta Mortality (%) 24 h>
44%

$$$$
>  <COMPOUND>
COC(=O)CC1(C(=O)OC)Nc2c(C#N)c(C(F)(F)F)nn2-c2cncc(Cl)c21 (stereo not shown) [b-136]

>  <Solenopsis invicta Mortality (%) 24 h>
20%

$$$$
>  <COMPOUND>
N#Cc1nn2c(c1[S+]([O-])C(F)(F)F)NC(C#N)c1cc(C(F)(F)F)cc(Cl)c1-2 (stereo not drawn) [d-82]

>  <Solenopsis invicta Mortality (%) 24 h>
25%

$$$$
>  <COMPOUND>
COC(=O)CC1(C(=O)OC)Nc2c(C(F)(F)F)c(C#N)nn2-c2cc(C(F)(F)F)cc(Cl)c21 (stereo not shown) [c-2]

>  <Solenopsis invicta Mortality (%) 24 h>
20%

$$$$

###

Tested on: Solenopsis invicta
ASSAY DETAILS: whole plant or invertebrate
Format: in vivo
MEASUREMENT CONDITIONS: 100 ppm; 24 h; water test tube poison-feeding
Known Solenopsis invicta Mortality (%) 24 h of a selection of molecules

>  <MOLECULE>
N#Cc1nn2c(c1[S+]([O-])C(F)(F)F)NC(Cc1ccccc1)(C(=O)C(F)(F)F)c1cc(C(F)(F)F)cc(Cl)c1-2 (stereo not shown)

>  <UNIT ABBREVIATION>
%

>  <Solenopsis invicta Mortality (%) 24 h>
24

$$$$
>  <MOLECULE>
COC(=O)CC1Nc2c(OC(F)(F)F)c(C#N)nn2-c2cncc(Cl)c21 (stereo not shown)

>  <UNIT ABBREVIATION>
%

>  <Solenopsis invicta Mortality (%) 24 h>
24

$$$$
>  <MOLECULE>
CNC(=O)CC1Nc2c(OC(F)(F)F)c(C#N)nn2-c2cncc(Cl)c21 (stereo not shown)

>  <UNIT ABBREVIATION>
%

>  <Solenopsis invicta Mortality (%) 24 h>
24

$$$$
>  <MOLECULE>
CC(=O)C1(CBr)Nc2c([S+]([O-])C(F)(F)F)c(C#N)nn2-c2cncc(Cl)c21 (stereo not shown)

>  <UNIT ABBREVIATION>
%

>  <Solenopsis invicta Mortality (%) 24 h>
10

$$$$
